Test target: T1, Recombinant human PD-1-Fc (human, UniProt Q15116 25-167, limits assumed)
T1 construct: also called recombinant human PD-1-Fc protein; not shown: Fc part
T1 sequence (Q15116 25-167 limits assumed): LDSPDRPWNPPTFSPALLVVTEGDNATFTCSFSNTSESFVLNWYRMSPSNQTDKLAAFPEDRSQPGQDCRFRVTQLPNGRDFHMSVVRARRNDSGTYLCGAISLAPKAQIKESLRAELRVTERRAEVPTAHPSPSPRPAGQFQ
Test name: competition ELISA, PD-1-Fc coated, competitor biotin-labeled PD-L1
Measured pIC50 of individual entries
In plain terms, pIC50 is the concentration in mol/L turned into minus its base-10 logarithm.

For orientation, consider the following solved cases.
Binder	Value observed
AH00293 (antibody, human IgG4 S228P, kappa, V domains shown, also called humanized anti-human PD-1 monoclonal antibody AH00293) VH: EVNLVESGGGLVQPGGSLRLSCAASGFTFSSYGMSWVRQAPGKGLEWVASISGGGRYTYYPDSMKGRFTISRDNSKNNLYLQMNSLRAEDTAVYYCVYEYFYTMDYWGQGTLVTVSS VL: DIVLTQSPATLSLSPGERATLSCRANQSISNNLHWYQQKPGQAPRLLIRFASQSISGIPARFSGSGSGTDFTLTISSLEPEDFAVYYCQQSDNWPLTFGGGTKVEIKR	8.92
AH00296-N26S (antibody, human IgG4 S228P, kappa, V domains shown, also called AII00296-N26S) VH: EVNLVESGGGLVQPGGSLRLSCAASGFTFSSYGMSWVRQAPGKGLEWVASISGGGRYTYYPDSMKGRFTISRDNSKNTLYLQMNSLRAEDTAVYYCVYEYFYTMDYWGQGTLVTVSS VL: DIVLTQSPATLSLSPGERATLSCRASQSISNNLHWYQQKPGQAPRLLIRFASQSISGIPARFSGSGSGTDFTLTISSLEPEDFAVYFCQQSDNWPLTFGGGTKVEIKR	8.97
AH00296-S28A (antibody, human IgG4 S228P, kappa, V domains shown) VH: EVNLVESGGGLVQPGGSLRLSCAASGFTFSSYGMSWVRQAPGKGLEWVASISGGGRYTYYPDSMKGRFTISRDNSKNTLYLQMNSLRAEDTAVYYCVYEYFYTMDYWGQGTLVTVSS VL: DIVLTQSPATLSLSPGERATLSCRANQAISNNLHWYQQKPGQAPRLLIRFASQSISGIPARFSGSGSGTDFTLTISSLEPEDFAVYFCQQSDNWPLTFGGGTKVEIKR	8.76
BMIII (antibody, human IgG4 S228P, kappa, V domains shown) VH: EVNLVESGGGLVQPGGSLRLSCAASGFTFSSYGMSWVRQTPGKGLEWVASISGGGRYTYYPDSMKGRFTISRDNSKNNLYLQMNSLRAEDTAVYYCVYEYFYTMDYWGQGTLVTVSS VL: DVVLTQSPATLSVSPGERVTLSCRANQSISNNLHWYQQKPGQSPRLLIRFASQSISGIPARFSGSGSGTDFTLTISSVEPEDFGVYFCQQSDNWPLTFGGGTKLEIKR	8.92
AH00290 (antibody, human IgG4 S228P, kappa, V domains shown, also called humanized anti-human PD-1 monoclonal antibody AH00290) VH: EVNLVESGGGLVQPGGSLRLSCAASGFTFSSYGMSWVRQAPGKGLEWVSSISGGGRYTYYPDSMKGRFTISRDNSKNTLYLQMNSLRAEDTAVYYCVYEYFYTMDYWGQGTLVTVSS VL: DIVLTQSPATLSLSPGERATLSCRANQSISNNLHWYQQKPGQAPRLLIRFASQSISGIPARFSGSGSGTDFTLTISSLEPEDFAVYFCQQSDNWPLTFGGGTKVEIKR	8.96
anti-human PD-1 chimeric monoclonal antibody (antibody, human IgG4 S228P, kappa, V domains shown, expressed in 293F cells; also called Anti-human PD-1 Chimeric Antibody; chimeric anti-human PD-1 monoclonal antibody) VH: EVQLQESGGGLVKPGGSLKLSCAASGFTFSSYGMSWVRQTPEKRLEWVASISGGGRYTYYPDSMKGRFTISRDNAKNNLHLQMSSLRSEDTALYYCVYEYFYTMDYWGQGTSVTVSS VL: DIVLTQSPATLSVTPGDSVSLSCRANQSISNNLHWYQQRSHESPRLLIRFASQSISGIPSRFSGSGSGTDFTLSINSVETEDFGMYFCQQSDNWPLTFGAGTKLEIKR	8.84
AH00296-N26Q (antibody, human IgG4 S228P, kappa, V domains shown) VH: EVNLVESGGGLVQPGGSLRLSCAASGFTFSSYGMSWVRQAPGKGLEWVASISGGGRYTYYPDSMKGRFTISRDNSKNTLYLQMNSLRAEDTAVYYCVYEYFYTMDYWGQGTLVTVSS VL: DIVLTQSPATLSLSPGERATLSCRAQQSISNNLHWYQQKPGQAPRLLIRFASQSISGIPARFSGSGSGTDFTLTISSLEPEDFAVYFCQQSDNWPLTFGGGTKVEIKR	8.89

Alright, here's another binder for you.
Q: Would you mind telling me what pIC50 value was observed for BMIV (antibody, human IgG4 S228P, kappa, V domains shown) VH: EVNLVESGGGLVQPGGSLRLSCAASGFTFSSYGMSWVRQTPGKGLEWVASISGGGRYTYYPDSMKGRFTISRDNSKNNLHLQMSSLRAEDTAVYYCVYEYFYTMDYWGQGTLVTVSS VL: DVVLTQSPATLSVSPGERVTLSCRANQSISNNLHWYQQKSHQSPRLLIRFASQSISGIPARFSGSGSGTDFTLTISSVETEDFGVYFCQQSDNWPLTFGGGTKLEIKR ?
Ans: 8.89

Ref: patent US20190367615A1
